Molecular target: DNA gyrase (Staphylococcus aureus, UniProt P0A0K8+P20831)
Sequence (P0A0K8 whole entry): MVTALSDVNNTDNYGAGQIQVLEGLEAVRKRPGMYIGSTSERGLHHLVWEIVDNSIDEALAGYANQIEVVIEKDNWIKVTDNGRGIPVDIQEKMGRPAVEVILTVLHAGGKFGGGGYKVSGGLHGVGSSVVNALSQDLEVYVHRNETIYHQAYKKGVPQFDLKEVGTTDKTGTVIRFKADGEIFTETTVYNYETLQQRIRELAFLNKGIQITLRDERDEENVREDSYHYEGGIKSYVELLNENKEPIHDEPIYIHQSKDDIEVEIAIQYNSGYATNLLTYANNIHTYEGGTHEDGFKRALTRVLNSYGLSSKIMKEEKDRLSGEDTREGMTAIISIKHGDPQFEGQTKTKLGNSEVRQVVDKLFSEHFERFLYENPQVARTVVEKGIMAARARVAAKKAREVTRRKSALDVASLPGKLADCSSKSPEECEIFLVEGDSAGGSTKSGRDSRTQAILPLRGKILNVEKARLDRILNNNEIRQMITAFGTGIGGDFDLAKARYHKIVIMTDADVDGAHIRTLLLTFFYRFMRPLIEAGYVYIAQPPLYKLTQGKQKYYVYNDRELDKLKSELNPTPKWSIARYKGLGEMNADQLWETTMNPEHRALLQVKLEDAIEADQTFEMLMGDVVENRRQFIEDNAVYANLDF
Sequence (P20831 whole entry): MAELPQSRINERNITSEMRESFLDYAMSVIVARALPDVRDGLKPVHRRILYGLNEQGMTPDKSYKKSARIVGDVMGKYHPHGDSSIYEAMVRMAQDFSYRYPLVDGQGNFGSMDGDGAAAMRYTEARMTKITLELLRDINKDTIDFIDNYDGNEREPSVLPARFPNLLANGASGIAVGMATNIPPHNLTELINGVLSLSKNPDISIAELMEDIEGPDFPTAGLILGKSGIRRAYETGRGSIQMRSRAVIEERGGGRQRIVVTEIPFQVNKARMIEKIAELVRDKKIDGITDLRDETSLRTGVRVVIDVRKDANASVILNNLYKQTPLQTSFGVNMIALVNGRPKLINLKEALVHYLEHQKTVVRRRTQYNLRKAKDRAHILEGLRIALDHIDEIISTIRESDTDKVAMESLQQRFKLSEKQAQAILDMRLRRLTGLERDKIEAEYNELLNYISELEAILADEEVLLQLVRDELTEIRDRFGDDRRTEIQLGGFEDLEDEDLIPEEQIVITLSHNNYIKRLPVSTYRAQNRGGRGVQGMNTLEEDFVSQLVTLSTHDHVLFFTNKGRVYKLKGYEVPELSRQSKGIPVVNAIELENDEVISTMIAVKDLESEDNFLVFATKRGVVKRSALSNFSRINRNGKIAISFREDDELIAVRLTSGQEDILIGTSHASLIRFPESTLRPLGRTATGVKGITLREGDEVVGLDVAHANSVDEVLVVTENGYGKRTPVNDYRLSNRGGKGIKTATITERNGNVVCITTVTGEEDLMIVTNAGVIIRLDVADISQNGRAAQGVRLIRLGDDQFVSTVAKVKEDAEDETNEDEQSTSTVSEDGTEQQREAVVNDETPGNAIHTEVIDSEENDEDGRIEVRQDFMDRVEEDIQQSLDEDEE
Experiment: Inhibition of Staphylococcus aureus DNA gyrase by supercoiling assay
pIC50: −log10 of the molar value.
Below, each of the compounds is paired with its reported pIC50 value.

COc1ccc2nccc([C@H](O)CC[C@@H]3CCN(CCSc4sccc4P(=O)(O)O)C[C@@H]3C(=O)O)c2c1 (mixture of isomers) ... < 4.00
COc1ccc2nccc([C@@H](O)CC[C@@H]3CCN(CCSc4sccc4P(=O)(OC(C)C)OC(C)C)C[C@@H]3C(=O)O)c2c1 (mixture of isomers) ... < 4.00

Now let's try a different one.
Record lookup: for DNA gyrase (Staphylococcus aureus, UniProt P0A0K8+P20831), what pIC50 belongs to COc1ccc2nccc(C(O)CC[C@@H]3CCN(CCSc4ccc(C(=O)O)[se]4)C[C@@H]3C(=O)O)c2c1 (mixture of isomers) ?
< 4.00

----------
Below, each of the molecules is paired with its reported CC50 at 72 h value.
Assay: Cytotoxicity against human Hep2 cell line after 72 hrs
Type: cell-based
Conditions: HEp-2 cells

Here's what some known entries look like.
COc1ccc2nccc([C@H](O)CC[C@@H]3CCN(CCSc4cccs4)C[C@@H]3C(=O)O)c2c1 (mixture of isomers) ... > 100 µM
COc1ccc2nccc([C@H](O)CC[C@@H]3CCN(CCSc4ccc(C#N)[se]4)C[C@@H]3C(=O)O)c2c1 (mixture of isomers) ... 65 µM
COc1ccc2nccc([C@H](O)CC[C@@H]3CCN(CCS(=O)(=O)c4ccc[se]4)C[C@@H]3C(=O)O)c2c1 (mixture of isomers) ... > 100 µM
COc1ccc2nccc([C@@H](O)CC[C@@H]3CCN(CCSc4sccc4P(=O)(OC(C)C)OC(C)C)C[C@@H]3C(=O)O)c2c1 (mixture of isomers) ... > 98 µM
COc1ccc2nccc([C@H](O)CC[C@@H]3CCN(CCSc4ccc[se]4)C[C@@H]3C(=O)O)c2c1 (mixture of isomers) ... > 100 µM

// lookup CC50 at 72 h for COc1ccc2nccc([C@@H](O)CC[C@@H]3CCN(CCSc4sccc4P(=O)(O)O)C[C@@H]3C(=O)O)c2c1 (mixture of isomers)
> 94 µM

// lookup CC50 at 72 h for COc1ccc2nccc([C@H](O)CC[C@@H]3CCN(CCSc4sccc4P(=O)(O)O)C[C@@H]3C(=O)O)c2c1 (mixture of isomers)
> 100 µM

// lookup CC50 at 72 h for COc1c(N2C[C@@H]3CCCN[C@@H]3C2)c(F)cc2c(=O)c(C(=O)O)cn(C3CC3)c12
> 100 µM

// lookup CC50 at 72 h for COc1ccc2nccc(C(O)CC[C@@H]3CCN(CCC(=O)N4CCCCC4)C[C@@H]3C(=O)O)c2c1 (mixture of isomers)
> 100 µM

// lookup CC50 at 72 h for COc1ccc2nccc([C@@H](O)CC[C@@H]3CCN(CCSc4ccc(C#N)[se]4)C[C@@H]3C(=O)O)c2c1 (mixture of isomers)
48 µM

// lookup CC50 at 72 h for COc1ccc2nccc([C@H](O)CC[C@@H]3CCN(CCSc4ccco4)C[C@@H]3C(=O)O)c2c1 (mixture of isomers)
> 100 µM

// lookup CC50 at 72 h for COc1ccc2nccc([C@H](O)CC[C@@H]3CCN(CCSc4ccc(C=O)[se]4)C[C@@H]3C(=O)O)c2c1 (mixture of isomers)
> 100 µM
